assay: NCI Yeast Anticancer Drug Screen. Data for the cln2 rad14 strain (AID 165);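 further: 0% = growth equal to vehicle treated cultures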; conditions: S. cerevisiae cln2 rad14 strain, at 50.0 µM, hits give high values
The panel holds about 79,000 compounds, 15% with a hit somewhere; the sample as a whole holds those more often.
The compounds listed here are annotated with their growth inhibition.
Metric name: growth inhibition (%)

Compound: Fc1ccc(Oc2nc3ccccc3nc2-c2ccccc2)cc1
Reported result: 5.55
//
Compound: COC(=O)C1OC(O[C@H]2CC[C@]3(C)[C@H]4CC=C5[C@@H]6CC(C)(C)CC[C@]6(C(=O)OC)[C@H](O)C[C@@]5(C)[C@]4(C)CC[C@H]3C2(C)C)C(O)C(O)C1O (stereo partly drawn)
Reported result: 26.4
//
Compound: Cc1ccc(S(=O)(=O)N(C)C(C(=O)O)c2ccccc2)cc1 (stereo not drawn)
Reported result: -20.6
//
Compound: COc1cc(OC)c(-c2oc3ccccc3c(=O)c2O)c(OC)c1
Reported result: -13.2
//
Compound: CCOc1ccc(N=C2NC(=O)C(CC(=O)Nc3ccc(Cl)cc3Cl)S2)cc1 (stereo not drawn)
Reported result: -51.9
//
Compound: OCCCSc1ccccc1SCCCO
Reported result: -1.7
//
Compound: C(=C1/NC(c2ccccc2)=Nc2ccccc21)/c1ccccc1
Reported result: 37.6
//
Compound: COc1nc2c(nc(N)n2C2OC(CO)C(O)C(O)C2O)c(=O)[nH]1 (stereo not drawn)
Reported result: 3.45
//
Compound: c1ccc2c3c([nH]c2c1)C1(CCCCC1)c1c([nH]c2ccccc12)C31CCCCC1
Reported result: 9.9
//
Compound: c1ccc(-c2ccc(N=NN3CCCC3)cc2)cc1
Reported result: 6.4
//
Compound: Nc1cc(Cl)c(F)cc1Cl
Reported result: -28.8
//
Compound: Cc1ncc([N+](=O)[O-])cc1C(=O)O
Reported result: -7.1
//
Compound: OC1COC(c2ccccc2)OC1C(O)C1OC(c2ccccc2)OCC1O (stereo not drawn)
Reported result: -38.9
//
Compound: O=c1oc(-c2ccccc2)c(-c2ccccc2)o1
Reported result: -46.8
//
Compound: N#CCCOCCSCCC#N
Reported result: -5.45
//
Compound: CCN(CC)C1CCC(C2c3cc4c(cc3OC(N3CCOCC3)C2C)OCO4)CC1 (stereo not drawn)
Reported result: -63
//
Compound: O=S=NCCCl
Reported result: 1.5
//
Compound: CCOC(=O)/C=C(/C)N
Reported result: 8.45
//
Compound: O=C(CBr)c1ccc(S(=O)(=O)c2ccccc2)cc1
Reported result: 27.9
//
Compound: CCOC(=O)/C(C#N)=C/N=c1ccccn1C
Reported result: -25.1
//
Compound: Cc1cccc2c1CCC21OC(=O)c2c1ccc1ccccc21 (stereo not drawn)
Reported result: 17.1
//
Compound: O=C1C2C3C=C4c5ccccc5N(c5ccccc5)C4(C2C(=O)N1c1ccc([N+](=O)[O-])cc1)[C@H]1C(=O)N(c2ccc([N+](=O)[O-])cc2)C(=O)[C@@H]31 (stereo partly drawn)
Reported result: 13.2
//
Compound: COc1nc2[nH]c(C)cc(=O)c2c2ccccc12
Reported result: -26.8
//
Compound: O=C(NC1CC1)c1ccccc1
Reported result: -5.9
//
Compound: Cc1ccc(N2C(=O)/C(=C/c3ccc(N(CCC#N)CCC#N)cc3C)N=C2c2cc([N+](=O)[O-])ccc2Cl)cc1
Reported result: 35.2
//
Compound: CN1c2cccc3cccc(c23)NC12CCCCC2
Reported result: -62.2
//
Compound: CCN(CC)C(=O)c1ccc(O)c(OC)c1
Reported result: 7.65
//
Compound: OCC1OC(Oc2ccccc2)C(O)C(O)C1O (stereo not drawn)
Reported result: -1

Data origin, for the record: PubChem BioAssay (NCI)
